System: P12-Ichikawa
METHOD DESCRIPTION: cell viability relative to DMSO control; higher = less cytotoxic
TEST CONDITIONS: HPLM + 10% dialyzed FBS; 48 h; 1.71 µM
What cell viability was measured for each of the following?
Form entry: value (%) — number only.

cell viability for COc1ccc2cccc(CCNC(C)=O)c2c1 ?
104

cell viability for COc1ccc(-c2nc3cc(C4=NNC(=O)CC4C)ccc3[nH]2)cc1 (stereo not given) ?
114

cell viability for O=C1[O][Pt]2([NH]C3CCCCC3[NH]2)[O]C1=O (stereo not given) ?
114

cell viability for Nc1ccc([S+](=O)([O-])Nc2ccccn2)cc1 ?
119

cell viability for Cc1cnc(Nc2ccc(OCCN3CCCC3)cc2)nc1Nc1cccc([S+](=O)([O-])NC(C)(C)C)c1 ?
114

cell viability for CN(C(=O)c1ccc(F)cc1C(F)(F)F)C1CCN(c2nnc(-c3ccnn3C)c3ccccc23)CC1 ?
84.5

cell viability for Clc1ccc(COC(Cn2ccnc2)c2ccc(Cl)cc2Cl)cc1 (stereo not given) ?
117

cell viability for COc1ccc2cc(-c3[nH]c(-c4ccc([S+](C)[O-])cc4)nc3-c3ccncc3)ccc2c1 (stereo not given) ?
120

cell viability for N#Cc1c(C2CCNCC2)cc(-c2c(O)cccc2OCC2CC2)nc1N ?
107

cell viability for CN1C(=O)COc2c(C(=O)NC3CN4CCC3CC4)cc(Cl)cc21 (stereo not given) ?
96.9

* * *

Tested on: P12-Ichikawa
METHOD DESCRIPTION: cell viability relative to DMSO control; higher = less cytotoxic
TEST CONDITIONS: RPMI 5 mM glucose + 10% FBS; 48 h; 15.4 µM
RECORDED ENDPOINT: cell viability (%)
Form entry: value (%) — number only.

cell viability for O=C1[O][Pt]2([NH]C3CCCCC3[NH]2)[O]C1=O (stereo unspecified) ?
3.56

cell viability for CN1[C@@H]2CC(O)C[C@H]1[C@@H]1O[C@@H]12 (stereo partly specified) ?
104

cell viability for CCC1=C(C)CN(C(=O)NCCc2ccc(S(=O)(=O)NC(=O)N[C@H]3CC[C@H](C)CC3)cc2)C1=O ?
113

cell viability for O=C(Oc1ccc([N+](=O)[O-])cc1)N1CCN(Cc2cccc(Oc3ccccc3)c2)CC1 ?
102

cell viability for CCC(=O)O[C@@]1([C@H](C)C[C@H]2[C@@H]3C[C@H](F)\C4=C\C(=O)\C=C/[C@]4(C)[C@@]3(F)[C@@H](O)C[C@]12C)C(=O)SCF ?
55.1

cell viability for Cc1c(OCC(F)(F)F)ccnc1C[S+]([O-])c1nc2ccccc2[nH]1 (stereo unspecified) ?
101

cell viability for CN1C(=O)COc2c(C(=O)NC3CN4CCC3CC4)cc(Cl)cc21 (stereo unspecified) ?
95.6

cell viability for Cc1cnc(Nc2ccc(OCCN3CCCC3)cc2)nc1Nc1cccc([S+](=O)([O-])NC(C)(C)C)c1 ?
108

cell viability for CO[C@@H]1[C@H](N(C)C(=O)c2ccccc2)C[C@H]2O[C@]1(C)n1c3ccccc3c3c4c(c5c6ccccc6n2c5c31)C(=O)NC4 ?
28.8

cell viability for COc1ccc(-c2c(-c3ccc(O)cc3O)n[nH]c2C)cc1 ?
95.6

cell viability for N=C(N)c1ccc(OCCCCCOc2ccc(C(=N)N)cc2)cc1 ?
85.3

cell viability for Cn1cc(-c2ccc3ncc(Cc4ccc5ncccc5c4)n3n2)cn1 ?
104

cell viability for C[C@@H]1CN(CC(=O)N2CC(C)(C)c3ncc(Cc4ccc(F)cc4)cc32)[C@@H](CN2CCOC[C@H]2C)CN1 ?
116

cell viability for CC1(C)OC/2=C(\[C@H](NCC3=CC=CC=C3)[C@@H]1O)C(=O)C4=CC=CC=C4C2=O ?
18.7

cell viability for N#Cc1c(C2CCNCC2)cc(-c2c(O)cccc2OCC2CC2)nc1N ?
106

cell viability for CC(C)(C)C1=NC2=C([NH]1)C3=CC=C(F)C=C3C4=C2\C=C/NC4=O ?
17.8

* * *

Test system: SEM cells
METHOD DESCRIPTION: cell viability relative to DMSO control; higher = less cytotoxic
TEST CONDITIONS: HPLM + 10% dialyzed FBS; 48 h; 0.569 µM
What cell viability was measured for each of the following?
Report the figure along with its unit, number first.

Record N#Cc1c(C2CCNCC2)cc(-c2c(O)cccc2OCC2CC2)nc1N : what is its cell viability with SEM cells?
108%

Record N=C(N)c1ccc(OCCCCCOc2ccc(C(=N)N)cc2)cc1 : what is its cell viability with SEM cells?
118%

Record CCCn1c(=O)c2[nH]c(C34CC5CC3C[C@@H](C5)C4)nc2n(CCC)c1=O : what is its cell viability with SEM cells?
115%

Record Nc1ccc([S+](=O)([O-])Nc2ccccn2)cc1 : what is its cell viability with SEM cells?
93.6%

Record COc1cc2ncnc(Nc3ccc(F)c(Cl)c3)c2cc1OCCCN1CCOCC1 : what is its cell viability with SEM cells?
107%

* * *

Tested on: P12-Ichikawa
METHOD DESCRIPTION: cell viability relative to DMSO control; higher = less cytotoxic
TEST CONDITIONS: RPMI 5 mM glucose + 10% FBS; 48 h; 0.0211 µM
RECORDED ENDPOINT: cell viability (%)
Form entry: value (%) — number only.

cell viability for Cc1cnc(Nc2ccc(OCCN3CCCC3)cc2)nc1Nc1cccc([S+](=O)([O-])NC(C)(C)C)c1 ?
119

cell viability for NC/1=N/C(=O)N(/C=C1)[C@H]2CC[C@@H](CO)O2 ?
94

cell viability for CCOc1ccccc1OCCNC(C)Cc1ccc(OC)c([S+](N)(=O)[O-])c1 (stereo unspecified) ?
110

cell viability for CC(=O)SCC(Cc1ccccc1)C(=O)NCC(=O)OCc1ccccc1 (stereo unspecified) ?
102

cell viability for CCOC(=O)c1ccc(C#Cc2ccc3c(c2)C(C)(C)CCS3)nc1 ?
109

cell viability for CC1(C)CC(=O)c2c(C(F)(F)F)nn(-c3ccc(C(N)=O)c(NC4CCC(OC(=O)CN)CC4)c3)c2C1 (stereo unspecified) ?
95.4

cell viability for CN(C)c1ccc(C(=O)NCCCCCCC(=O)NO)cc1 ?
110

cell viability for CC(C)[C@@H](N(CCCN)C(=O)C1=CC=C(C)C=C1)C/2=C(\CC3=CC=CC=C3)C(=O)C4=C(O2)C=C(Cl)C=C4 ?
18.5

cell viability for CC(C)(O)CNc1nc(Nc2ccnc(C(F)(F)F)c2)nc(-c2cccc(C(F)(F)F)n2)n1 ?
114

cell viability for COc1ccc(CCC(=O)Nc2nc3ccc(Cl)cc3s2)cc1OC ?
114

cell viability for CC(Oc1ccc(O)cc1)(P(=O)(O)O)P(=O)(O)O ?
93.7

cell viability for CNC(=O)c1c(F)cccc1Nc1nc(Nc2cc3c(cc2OC)CCN3C(=O)CN(C)C)nc2[nH]ccc12 ?
123

cell viability for CN(C)[C@H]\1[C@@H]2[C@@H](O)[C@@H]\3C(=C)C4=C(C(=CC=C4)O)C(=O)C3=C(\O)[C@@]2(O)C(=O)\C(=C1O)C(N)=O ?
126

cell viability for C[C@@H]1CN(CC(=O)N2CC(C)(C)c3ncc(Cc4ccc(F)cc4)cc32)[C@@H](CN2CCOC[C@H]2C)CN1 ?
118

cell viability for Cc1ccccc1C(C(=O)NC1CCCCC1)N(C(=O)CNc1ccc(C#N)cc1)c1cccc(F)c1 (stereo unspecified) ?
112

cell viability for CN[C@@H](C)C(=O)N[C@H]1CCCC[C@H]2CC[C@@H](C(=O)N[C@@H](c3ccccc3)c3cn(CCCCc4ccc(CCCCn5cc([C@@H](NC(=O)[C@@H]6CC[C@@H]7CCCC[C@H](NC(=O)[C@H](C)NC)C(=O)N76)c6ccccc6)nn5)cc4)nn3)N2C1=O ?
106

* * *

Tested on: NOMO1
METHOD DESCRIPTION: cell viability relative to DMSO control; higher = less cytotoxic
TEST CONDITIONS: RPMI 5 mM glucose + 10% dialyzed FBS; 48 h; 0.000781 µM
# if measured cell viability < 90%: T  # else: F

In plain terms, does Cl.Cl.Fc1ccc(C(OCCN2CCN(CCCc3ccccc3)CC2)c2ccc(F)cc2)cc1 come in under 90% for cell viability?
F

In plain terms, does C[Se]CCC(N)C(=O)O (configuration not stated) come in under 90% for cell viability?
T

In plain terms, does Cn1c(=O)c2c(ncn2CC(O)CO)n(C)c1=O (configuration not stated) come in under 90% for cell viability?
F

In plain terms, does CN[C@@H](C)C(=O)N[C@H]1CCCC[C@H]2CC[C@@H](C(=O)N[C@@H](c3ccccc3)c3cn(CCCCc4ccc(CCCCn5cc([C@@H](NC(=O)[C@@H]6CC[C@@H]7CCCC[C@H](NC(=O)[C@H](C)NC)C(=O)N76)c6ccccc6)nn5)cc4)nn3)N2C1=O come in under 90% for cell viability?
T

In plain terms, does CC(=O)SCC(Cc1ccccc1)C(=O)NCC(=O)OCc1ccccc1 (configuration not stated) come in under 90% for cell viability?
T

In plain terms, does COc1cc(/C=C/C(=O)CC(=O)/C=C/c2ccc(O)c(OC)c2)ccc1O come in under 90% for cell viability?
F

In plain terms, does COc1cc2ncnc(Nc3ccc(F)c(Cl)c3)c2cc1OCCCN1CCOCC1 come in under 90% for cell viability?
F

In plain terms, does Cn1cc(-c2ccncc2)c(-c2ccc(OCc3ccc4ccccc4n3)cc2)n1 come in under 90% for cell viability?
F

In plain terms, does CC1(C)OC/2=C(\[C@H](NCC3=CC=CC=C3)[C@@H]1O)C(=O)C4=CC=CC=C4C2=O come in under 90% for cell viability?
T

In plain terms, does CC1=C2N=C([NH]C2=CC(=C1)N3CCOCC3)\C4=C(NC[C@@H](O)C5=CC=CC(=C5)Cl)\C=C/NC4=O come in under 90% for cell viability?
F

In plain terms, does COc1ccc2cc(-c3[nH]c(-c4ccc([S+](C)[O-])cc4)nc3-c3ccncc3)ccc2c1 (configuration not stated) come in under 90% for cell viability?
F
